study-system: HLA-A*68:02
assay-explanation: IEDB peptide-MHC binding, purified MHC/competitive/radioactivity; bounds were set here for any values at or beyond the usual limits of such assays
measurement-parameters: source organism: Vaccinia virus WR
measurement-type: IC50 (nM)

INSERT INTO results (sequence_text, measurement_type, data_value) VALUES
  ('RLRQDTEDI', 'IC50', 4170),
  ('MQKFTILEYL', 'IC50', 3730),
  ('ATICLKNEGV', 'IC50', 87),
  ('GMSIVCIVAA', 'IC50', 1860),
  ('VVECLTVPNI', 'IC50', 3750),
  ('YVSVMNFIPI', 'IC50', 55),
  ('TIAGGVCYYL', 'IC50', 0.13),
  ('IASKINNNRI', 'IC50', 163),
  ('FMSHVKSVT', 'IC50', 2600),
  ('KQYDSTDFKM', 'IC50', 3540),
  ('ELLEMKYAL', 'IC50', 1520),
  ('ITYCLVTHM', 'IC50', 1730);

----------
study-system: HLA-A*02:02
assay-explanation: IEDB peptide-MHC binding, purified MHC/competitive/radioactivity; bounds were set here for any values at or beyond the usual limits of such assays
measurement-parameters: source organism: Vaccinia virus WR
measurement-type: IC50 (nM)

INSERT INTO results (sequence_text, data_value) VALUES
  ('ETLPELNLSL', 52),
  ('NLTQLFKYV', 320),
  ('LTSVDIETA', 4920),
  ('ILPDKIDGL', 1),
  ('YIALCKVTV', 12),
  ('MLKLFTHDIM', 85),
  ('VIKLVKSLV', 1030),
  ('SLKRFTHTTA', 884),
  ('NIISYIILFI', 123);

----------
study-system: HLA-A*02:03
assay-explanation: IEDB peptide-MHC binding, purified MHC/competitive/radioactivity; bounds were set here for any values at or beyond the usual limits of such assays
measurement-parameters: source organism: Vaccinia virus WR
pIC50: −log10 of the molar value.
Recorded pIC50 for the following sequences
measurement-type: pIC50

INSERT INTO results (sequence_text, study_system, measurement_type, data_value) VALUES
  ('IMSMMNITRL', 'HLA-A*02:03', 'pIC50', 6.97),
  ('FVATFRDMLL', 'HLA-A*02:03', 'pIC50', 7.74),
  ('DVDIPTFNSL', 'HLA-A*02:03', 'pIC50', 5.99),
  ('FVKENERVNV', 'HLA-A*02:03', 'pIC50', 7.92),
  ('YLSGTDDEVI', 'HLA-A*02:03', 'pIC50', 6.68),
  ('QIFNIISYII', 'HLA-A*02:03', 'pIC50', 6.69),
  ('KIKQTGINNV', 'HLA-A*02:03', 'pIC50', 8.51),
  ('FQESFYEDIA', 'HLA-A*02:03', 'pIC50', 6.26),
  ('VLEKKVCAIT', 'HLA-A*02:03', 'pIC50', 5.91),
  ('YIWIKNLET', 'HLA-A*02:03', 'pIC50', 5.93),
  ('SVDVDIYDAV', 'HLA-A*02:03', 'pIC50', 8.04),
  ('YASLTTIGT', 'HLA-A*02:03', 'pIC50', 6.84),
  ('TVGMSIVCIV', 'HLA-A*02:03', 'pIC50', 6.33),
  ('NVSGVPHSV', 'HLA-A*02:03', 'pIC50', 7.62),
  ('EILSNTTKTL', 'HLA-A*02:03', 'pIC50', 7.00),
  ('LISSDGARVI', 'HLA-A*02:03', 'pIC50', 5.94),
  ('MAGVEVRYI', 'HLA-A*02:03', 'pIC50', 6.70),
  ('LLGLILFVL', 'HLA-A*02:03', 'pIC50', 5.73),
  ('DQTHIKTIAV', 'HLA-A*02:03', 'pIC50', 6.41),
  ('LMLHNPTSET', 'HLA-A*02:03', 'pIC50', 5.35),
  ('LIAGIILLI', 'HLA-A*02:03', 'pIC50', 7.41),
  ('YTRPEIDVL', 'HLA-A*02:03', 'pIC50', 7.13),
  ('KLYIALCKV', 'HLA-A*02:03', 'pIC50', 8.85);

----------
study-system: HLA-A*02:06
assay-explanation: IEDB peptide-MHC binding, purified MHC/competitive/radioactivity; bounds were set here for any values at or beyond the usual limits of such assays
measurement-parameters: source organism: Hepacivirus hominis
pIC50: −log10 of the molar value.
measurement-type: pIC50

INSERT INTO measurements (sequence_text, data_value) VALUES
  ('FLLALLSCLT', 6.23),
  ('LLLLSVGVGI', 6.15),
  ('ILMTHFFSI', 8.33),
  ('ALDCQIYGA', 5.92);

----------
study-system: HLA-A*02:06
assay-explanation: IEDB peptide-MHC binding, purified MHC/competitive/radioactivity; bounds were set here for any values at or beyond the usual limits of such assays
measurement-parameters: source organism: Hepatitis B virus
Output Met for records whose IC50 is lower than 900 nM, Not met for records at or above 900 nM.

INSERT INTO measurements (sequence_text, study_system, qualitative_label) VALUES
  ('ILSPFLPLL', 'HLA-A*02:06', 'Met'),
  ('ILLLCLIFL', 'HLA-A*02:06', 'Met'),
  ('FLLAQFTSAI', 'HLA-A*02:06', 'Met'),
  ('LLVLLDYQGM', 'HLA-A*02:06', 'Not met'),
  ('SLYSILSPFL', 'HLA-A*02:06', 'Met'),
  ('ILRGTSFVYV', 'HLA-A*02:06', 'Met'),
  ('HQLDPAFRA', 'HLA-A*02:06', 'Met'),
  ('VLLDYQGML', 'HLA-A*02:06', 'Met'),
  ('FLFILLLCLI', 'HLA-A*02:06', 'Not met'),
  ('YQGMLPVCPL', 'HLA-A*02:06', 'Met'),
  ('NLSWLSLDV', 'HLA-A*02:06', 'Not met'),
  ('FLCKQYLNL', 'HLA-A*02:06', 'Not met'),
  ('LLDYQGMLPV', 'HLA-A*02:06', 'Met'),
  ('GLLGWSPQA', 'HLA-A*02:06', 'Not met'),
  ('YMDDVVLGA', 'HLA-A*02:06', 'Not met'),
  ('KQYLNLYPV', 'HLA-A*02:06', 'Met'),
  ('GLSRYVARV', 'HLA-A*02:06', 'Not met'),
  ('FLFILLLCL', 'HLA-A*02:06', 'Not met'),
  ('ILCWGELMTL', 'HLA-A*02:06', 'Met'),
  ('LVPFVQWFV', 'HLA-A*02:06', 'Met'),
  ('FLLAQFTSA', 'HLA-A*02:06', 'Met'),
  ('KVGAGAFGL', 'HLA-A*02:06', 'Not met'),
  ('LLWFHISCL', 'HLA-A*02:06', 'Met'),
  ('YLVSFGVWI', 'HLA-A*02:06', 'Not met'),
  ('LLPIFFCLWV', 'HLA-A*02:06', 'Met'),
  ('CLIFLLVLL', 'HLA-A*02:06', 'Not met');

----------
As shown below, each of these sequences has a reported pIC50 value.
study-system: HLA-A*02:02
assay-explanation: IEDB peptide-MHC binding, purified MHC/competitive/radioactivity; bounds were set here for any values at or beyond the usual limits of such assays
measurement-parameters: source organism: SARS-CoV1
pIC50: −log10 of the molar value.
measurement-type: pIC50

INSERT INTO results (sequence_text, measurement_type, data_value) VALUES
  ('FLNGSCGSV', 'pIC50', 9.00),
  ('LLVAAGMEA', 'pIC50', 7.77),
  ('LLALQQLEV', 'pIC50', 9.85),
  ('SLVKPTVYV', 'pIC50', 6.97),
  ('FLAFVVFLLV', 'pIC50', 8.62),
  ('AMWLLLLSI', 'pIC50', 6.45),
  ('SMWALVISV', 'pIC50', 8.21),
  ('FQFICNLLLL', 'pIC50', 8.10),
  ('NLLLLFVTI', 'pIC50', 6.36),
  ('LMWFIISIV', 'pIC50', 7.22),
  ('NVLAWLYAA', 'pIC50', 8.14),
  ('ILFLTLIVFT', 'pIC50', 7.62),
  ('FLFLAWIMLL', 'pIC50', 7.72),
  ('YQCGHYTHI', 'pIC50', 7.14),
  ('YLMCLSPLM', 'pIC50', 9.85),
  ('NMLRIMASL', 'pIC50', 8.47),
  ('LVTSFLLMIV', 'pIC50', 7.51),
  ('VLTHGLASV', 'pIC50', 8.02),
  ('LLFQLCTFT', 'pIC50', 7.66),
  ('SLPSYAAYA', 'pIC50', 8.17),
  ('QLMCQPILL', 'pIC50', 8.52),
  ('LLFLVLIMLI', 'pIC50', 6.35),
  ('IAACAMLLV', 'pIC50', 6.49),
  ('FLWLLWPVTL', 'pIC50', 8.57),
  ('MLFTKFFYL', 'pIC50', 10.07),
  ('RMVSLVTSFL', 'pIC50', 8.77),
  ('KLFTIAMWLL', 'pIC50', 8.07),
  ('LLLSICLGSL', 'pIC50', 7.70),
  ('AQFLYLYAL', 'pIC50', 9.04),
  ('LLDDFVEII', 'pIC50', 6.87),
  ('TLIDFYLCFL', 'pIC50', 10.39),
  ('YLLGLSAIM', 'pIC50', 8.77),
  ('ITAIYVFCI', 'pIC50', 7.54),
  ('TLGVYDYLV', 'pIC50', 9.60),
  ('YIWKSYVHI', 'pIC50', 7.07),
  ('KLIEYSDFA', 'pIC50', 10.02),
  ('FLIVAALVFL', 'pIC50', 8.52),
  ('FLCLFLLPSL', 'pIC50', 9.28),
  ('MLLTFLTSLL', 'pIC50', 9.14),
  ('FLLPSLATV', 'pIC50', 9.89),
  ('KLWAQCVQL', 'pIC50', 7.89),
  ('TLMNVITLV', 'pIC50', 9.47),
  ('VMFNGVTFST', 'pIC50', 9.16),
  ('AIILASFSA', 'pIC50', 6.70),
  ('LLVTLAILTA', 'pIC50', 8.36),
  ('LMYKGLPWNV', 'pIC50', 8.74),
  ('LVFLWLLWPV', 'pIC50', 9.03),
  ('ALVSGTATA', 'pIC50', 8.34),
  ('FLLNKEMYL', 'pIC50', 9.48),
  ('ALVFLILCFT', 'pIC50', 6.68),
  ('LLFNKVTLA', 'pIC50', 9.02),
  ('CVMYASALV', 'pIC50', 8.35),
  ('LAFVVFLLV', 'pIC50', 6.34),
  ('FLVLIMLII', 'pIC50', 5.79),
  ('SQMETDFLEL', 'pIC50', 6.64),
  ('FLNRFTTTL', 'pIC50', 9.18),
  ('AIMTRCLAV', 'pIC50', 7.29),
  ('LMGHFSWWTA', 'pIC50', 7.72),
  ('FVDGVPFVV', 'pIC50', 8.02),
  ('VVHGYFTEV', 'pIC50', 7.77),
  ('FVVFLLVTL', 'pIC50', 6.66),
  ('ALLFLMSFT', 'pIC50', 5.55),
  ('WLVIGVAFL', 'pIC50', 8.59),
  ('LIVAALVFL', 'pIC50', 8.03),
  ('SLCSCICTV', 'pIC50', 8.40),
  ('IIFWFSLEI', 'pIC50', 8.74),
  ('YALCTLLHL', 'pIC50', 5.88),
  ('IMLIIFWFSL', 'pIC50', 5.81),
  ('LLLWISVKV', 'pIC50', 7.03),
  ('FLFLAWIML', 'pIC50', 8.74),
  ('FTLLFQLCT', 'pIC50', 5.96),
  ('ITMTTVYHI', 'pIC50', 7.72),
  ('GLIAIVMVTI', 'pIC50', 8.12),
  ('LLSAGIFGA', 'pIC50', 7.92),
  ('AQMGTLLIA', 'pIC50', 7.19),
  ('FLMSFTILCL', 'pIC50', 9.09),
  ('FLLVTLAIL', 'pIC50', 9.19),
  ('MLWCKDGHV', 'pIC50', 8.00);
